Where do the numbers come from? From patent EP0435222A2.

Test system: naja naja (snake venom) phospholipase A₂-induced paw edema
Assay: Phospholipase A₂-induced Paw Edema (PIPE)
Type: in vivo, male Wistar rats
Settings: difference in edema vs. control; 0.1 M test compound injected with PLA₂ (3 units/paw), subplantar, rat hindpaw, two hours post administration
Counter-ions that a name gives are not always drawn.
I'd appreciate it if you marked entries y when PIPE* (0.1 M) is lower than -60% and n when it is not.

Study these solved cases before continuing.
INSERT INTO results (compound, qualitativelabel) VALUES
  ('CC(NCc1ccccc1)c1cnccc1N (centres unmarked)', 'n'),
  ('Cl.Cl.Nc1ccncc1C(N)C1CCCCC1 (centres unmarked)', 'y'),
  ('Nc1ccncc1C(O)c1ccccc1F (centres unmarked) [hydrochloride]', 'n'),
  ('Nc1ccncc1C(N)c1ccccc1 (centres unmarked) [dihydrochloride]', 'y');

Next:
Request: Would you kindly verify if PIPE* (0.1 M) of Cl.Cl.Nc1ccncc1CNCc1ccccc1 is strictly less than -60%?
Result: n

---

This listing pairs compounds with measured inhibition at 10000 µM.
Biological target: porcine pancreatic PLA₂ (Sus scrofa)
Construct: porcine pancreatic PLA₂ (3.2 units); from tissue; host or cells: porcine pancreas
Sequence (P00592 23-146): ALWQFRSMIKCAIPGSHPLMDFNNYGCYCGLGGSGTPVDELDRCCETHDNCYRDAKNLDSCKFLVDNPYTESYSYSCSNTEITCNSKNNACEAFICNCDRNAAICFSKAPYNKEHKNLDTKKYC
Experiment: In Vitro Phospholipase A₂ Assay (PLA₂)
Type: biochemical
Details: pH 8, read-out: PLA2* (0.01 M)
Structures can show the parent of a compound that is named as a salt.
Respond with the bare value in %.

Some entries whose results are on file:
INSERT INTO results (compound, observedmeasurement) VALUES
  ('CC(NCc1ccccc1)c1cnccc1NC(=O)C(C)(C)C (centres unmarked) [dihydrochloride]', 74),
  ('Cl.Cl.Nc1ccncc1CNCc1ccccc1 [dihydrochloride]', 79),
  ('Cl.Cl.Nc1ccncc1C(N)C1CCCCC1 (centres unmarked) [dihydrochloride]', 72),
  ('Cl.Nc1ccncc1C(=O)C1CCCCC1 [hydrochloride]', 82);

Query compound follows.
Request: Could you share what inhibition at 10000 µM was measured for Nc1ccncc1C(=NO)C1CCCCC1 [hydrochloride] , tested on porcine pancreatic PLA₂ (Sus scrofa)?
Result: 99
